- ASSAY PROTOCOL: Solubility test in first and second liquid of the Japanese Pharmacopoeia
- MEASUREMENT CONDITIONS: first liquid of the Japanese Pharmacopoeia (JP1), pH 1.2, simulated gastric fluid, Solubility, First liquid of Japanese Pharmacopoeia (μg/mL), JP1, pH=1.2
List of solubility values.
Kindly answer with a numeric value in µg/mL, unit omitted.

{"columns": ["MOLECULE", "UNIT", "solubility"],
 "data": [
  ["CO[C@H]1CN([C@H]2C[C@@H](CO[C@H]3CC[C@H](C(=O)O)CC3)N(C(=O)Cc3cc(Cl)c(NC(=O)c4coc5ccccc45)cc3Cl)C2)C[C@H]1OC [Example 60]", "µg/mL", 1000]
]}

Entry CO[C@H]1CN([C@H]2C[C@@H](CO[C@H]3CC[C@H](C(=O)O)CC3)N(C(=O)Cc3cc(Cl)c(NC(=O)c4coc5ccccc45)cc3F)C2)C[C@@H]1OC [Example 53] has what solubility?
1000

* * *

- TARGET: hα4 and β1 integrins (Homo sapiens, UniProt P05556+P13612)
- Sequence (P13612 34-1032): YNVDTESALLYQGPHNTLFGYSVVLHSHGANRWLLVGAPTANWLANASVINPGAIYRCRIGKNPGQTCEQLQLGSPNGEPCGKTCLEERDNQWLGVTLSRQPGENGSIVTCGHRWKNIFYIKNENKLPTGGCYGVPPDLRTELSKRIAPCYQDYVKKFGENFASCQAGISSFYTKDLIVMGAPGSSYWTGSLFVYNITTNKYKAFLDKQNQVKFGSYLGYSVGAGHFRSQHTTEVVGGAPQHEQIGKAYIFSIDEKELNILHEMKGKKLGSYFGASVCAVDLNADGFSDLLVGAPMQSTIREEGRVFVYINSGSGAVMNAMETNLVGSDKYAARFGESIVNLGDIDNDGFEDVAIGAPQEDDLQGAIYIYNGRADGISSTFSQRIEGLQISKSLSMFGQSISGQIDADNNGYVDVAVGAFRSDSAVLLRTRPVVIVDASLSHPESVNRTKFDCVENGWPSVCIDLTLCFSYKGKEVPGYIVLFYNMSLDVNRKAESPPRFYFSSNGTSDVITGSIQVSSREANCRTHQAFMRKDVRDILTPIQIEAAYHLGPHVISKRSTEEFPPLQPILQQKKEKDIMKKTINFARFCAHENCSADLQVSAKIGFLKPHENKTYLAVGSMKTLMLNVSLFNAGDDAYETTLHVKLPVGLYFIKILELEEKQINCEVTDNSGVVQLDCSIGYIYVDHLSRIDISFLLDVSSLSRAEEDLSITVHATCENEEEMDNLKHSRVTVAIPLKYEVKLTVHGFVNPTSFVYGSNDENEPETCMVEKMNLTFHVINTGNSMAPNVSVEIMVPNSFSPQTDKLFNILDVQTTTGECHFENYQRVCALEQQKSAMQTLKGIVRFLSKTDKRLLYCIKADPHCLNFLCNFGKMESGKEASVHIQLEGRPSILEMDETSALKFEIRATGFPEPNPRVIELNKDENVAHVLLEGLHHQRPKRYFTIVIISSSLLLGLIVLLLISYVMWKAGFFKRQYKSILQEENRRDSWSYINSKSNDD
- Sequence (P05556 21-798): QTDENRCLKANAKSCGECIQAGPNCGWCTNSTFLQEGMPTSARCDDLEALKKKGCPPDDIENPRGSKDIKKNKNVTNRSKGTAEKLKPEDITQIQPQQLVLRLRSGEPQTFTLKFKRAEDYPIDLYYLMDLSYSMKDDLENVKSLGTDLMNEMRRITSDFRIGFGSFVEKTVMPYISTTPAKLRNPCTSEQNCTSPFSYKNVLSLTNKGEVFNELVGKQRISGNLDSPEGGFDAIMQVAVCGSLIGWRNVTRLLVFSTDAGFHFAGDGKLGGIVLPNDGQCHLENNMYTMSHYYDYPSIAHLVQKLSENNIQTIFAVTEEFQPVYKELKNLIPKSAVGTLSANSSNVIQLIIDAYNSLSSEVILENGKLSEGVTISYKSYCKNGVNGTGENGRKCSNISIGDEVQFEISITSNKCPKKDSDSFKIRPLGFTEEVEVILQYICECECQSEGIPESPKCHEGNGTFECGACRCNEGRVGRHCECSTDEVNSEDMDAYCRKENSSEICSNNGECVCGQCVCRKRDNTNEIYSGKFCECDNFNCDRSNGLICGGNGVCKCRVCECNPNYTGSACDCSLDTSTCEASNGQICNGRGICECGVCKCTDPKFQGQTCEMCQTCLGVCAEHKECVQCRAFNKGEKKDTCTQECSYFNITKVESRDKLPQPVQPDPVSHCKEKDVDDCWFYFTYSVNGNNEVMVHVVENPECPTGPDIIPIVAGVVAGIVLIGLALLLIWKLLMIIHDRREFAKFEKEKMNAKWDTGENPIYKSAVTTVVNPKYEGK
- ASSAY PROTOCOL: In vitro inhibition of binding between CHO cells expressing hα4 and β1 integrins and Eu3+-hVCAM-1 D1D7-IgG
- MEASUREMENT CONDITIONS: in the presence of 3% human serum albumin (HSA final concentration 3%)
List of pIC50 values.
# pIC50 is unitless: minus log10 of the molar concentration; print number only

# example entries with known answers
{"columns": ["COMPOUND", "TARGET", "READOUT KIND", "NUMBER"],
 "data": [
  ["COC1CN([C@H]2C[C@@H](CO[C@H]3CC[C@H](C(=O)O)CC3)N(C(=O)Cc3cc(Cl)c(NC(=O)c4coc5ccccc45)cc3F)C2)C1 (relative stereo)", "hα4 and β1 integrins (Homo sapiens, UniProt P05556+P13612)", "pIC50", 7.92],
  ["CCO[C@H]1CN([C@H]2C[C@@H](CO[C@H]3CC[C@H](C(=O)O)CC3)N(C(=O)Cc3cc(Cl)c(NC(=O)c4cn(C)c5ccccc45)cc3Cl)C2)C[C@H]1OCC", "hα4 and β1 integrins (Homo sapiens, UniProt P05556+P13612)", "pIC50", 7.64],
  ["C[C@@H]1CN([C@H]2C[C@@H](CO[C@H]3CC[C@H](C(=O)O)CC3)N(C(=O)Cc3cc(Cl)c(NC(=O)c4cn(C)c5ccccc45)cc3F)C2)C[C@H](C)N1CCF", "hα4 and β1 integrins (Homo sapiens, UniProt P05556+P13612)", "pIC50", 7.92],
  ["CN1CCN([C@H]2C[C@@H](CO[C@H]3CC[C@H](C(=O)O)CC3)N(C(=O)Cc3cc(Cl)c(NC(=O)c4cn(C)c5ccccc45)cc3Cl)C2)CC1=O", "hα4 and β1 integrins (Homo sapiens, UniProt P05556+P13612)", "pIC50", 7.96]
]}

Entry COCCN1CCN([C@H]2C[C@@H](CO[C@H]3CC[C@H](C(=O)O)CC3)N(C(=O)Cc3cc(Cl)c(NC(=O)c4cn(C)c5ccccc45)cc3Cl)C2)CC1 has what pIC50?
8.06

* * *

List of IC50 values.
- TARGET: hα4 and β1 integrins (Homo sapiens, UniProt P05556+P13612)
- Construct: expressed in transfected cells; host or cells: CHO cells
- ASSAY PROTOCOL: In vitro inhibition of binding between CHO cells expressing hα4 and β1 integrins and Eu3+-hVCAM-1 D1D7-IgG
- MEASUREMENT CONDITIONS: in the presence of 3% human serum albumin (HSA final concentration 3%)

{"columns": ["COMPOUND", "READOUT KIND", "RESULT"],
 "data": [
  ["CC1CN([C@H]2C[C@@H](CO[C@H]3CC[C@H](C(=O)O)CC3)N(C(=O)Cc3cc(Cl)c(NC(=O)c4cn(C)c5ccccc45)cc3Cl)C2)CC(C)O1 (stereo partly shown) [Example 91]", "IC50", "0.081 µM"],
  ["Cn1nc(C(=O)Nc2ccc(CC(=O)N3C[C@@H](N4CCN(CC(F)(F)F)CC4)C[C@H]3CO[C@H]3CC[C@H](C(=O)O)CC3)cc2Cl)c2ccccc21 [Example 128]", "IC50", "0.013 µM"],
  ["O=C(Nc1cc(Cl)c(CC(=O)N2C[C@@H](N3CCCCC3)C[C@H]2CO[C@H]2CC[C@H](C(=O)O)CC2)cc1Cl)c1csc2ccccc12 [Example 95]", "IC50", "0.0053 µM"],
  ["CCOC1CCN([C@H]2C[C@@H](CO[C@H]3CC[C@H](C(=O)O)CC3)N(C(=O)Cc3cc(Cl)c(NC(=O)c4coc5ccccc45)cc3Cl)C2)CC1 [Example 105]", "IC50", "0.015 µM"],
  ["COC1CN([C@H]2C[C@@H](CO[C@H]3CC[C@H](C(=O)O)CC3)N(C(=O)Cc3cc(Cl)c(NC(=O)c4cn(C)c5ccccc45)cc3F)C2)C1 [Example 1]", "IC50", "0.015 µM"],
  ["CO[C@H]1CN([C@H]2C[C@@H](CO[C@H]3CC[C@H](C(=O)O)CC3)N(C(=O)Cc3cc(Cl)c(NC(=O)c4cn(C)c5ccccc45)cc3F)C2)C[C@H]1OC [Example 55]", "IC50", "0.0092 µM"],
  ["CO[C@H]1CN([C@H]2C[C@@H](CO[C@H]3CC[C@H](C(=O)O)CC3)N(C(=O)Cc3cc(Cl)c(NC(=O)c4csc5ccccc45)cc3F)C2)C[C@@H]1OC [Example 52]", "IC50", "0.0084 µM"],
  ["CN1CCN([C@H]2C[C@@H](CO[C@H]3CC[C@H](C(=O)O)CC3)N(C(=O)Cc3cc(Cl)c(NC(=O)c4csc5ccccc45)cc3F)C2)CC1 [Example 111]", "IC50", "0.0012 µM"],
  ["CC(=O)N1CCN([C@H]2C[C@@H](CO[C@H]3CC[C@H](C(=O)O)CC3)N(C(=O)Cc3cc(Cl)c(NC(=O)c4csc5ccccc45)cc3F)C2)CC1 [Example 148]", "IC50", "0.0028 µM"],
  ["O=C(Nc1cc(Cl)c(CC(=O)N2C[C@@H](N3CCCC3)C[C@H]2CO[C@H]2CC[C@H](C(=O)O)CC2)cc1Cl)c1csc2ccccc12 [Example 31]", "IC50", "0.0058 µM"]
]}

Entry CC(=O)N[C@H]1CCN([C@H]2C[C@@H](CO[C@H]3CC[C@H](C(=O)O)CC3)N(C(=O)Cc3cc(Cl)c(NC(=O)c4csc5ccccc45)cc3F)C2)C1 [Example 66] has what IC50?
0.014 µM

Entry COc1cc(CC(=O)N2C[C@@H](N3CCN(CC(F)(F)F)CC3)C[C@H]2CO[C@H]2CC[C@H](C(=O)O)CC2)ccc1NC(=O)c1csc2ccccc12 [Example 133] has what IC50?
0.0033 µM

Entry O=C(Nc1cc(Cl)c(CC(=O)N2C[C@@H](N3CCCOCC3)C[C@H]2CO[C@H]2CC[C@H](C(=O)O)CC2)cc1Cl)c1coc2ccccc12 [Example 167] has what IC50?
0.019 µM

Entry C[C@@H]1CN([C@H]2C[C@@H](CO[C@H]3CC[C@H](C(=O)O)CC3)N(C(=O)Cc3ccc(NC(=O)c4cn(C)c5ccccc45)c(Cl)c3)C2)C[C@H](C)O1 [Example 85] has what IC50?
0.0092 µM

Entry Cn1cc(C(=O)Nc2cc(F)c(CC(=O)N3C[C@@H](N4CCN(C5CCCC5)CC4)C[C@H]3CO[C@H]3CC[C@H](C(=O)O)CC3)cc2Cl)c2ccccc21 [Example 142] has what IC50?
0.011 µM

Entry O=C(Nc1cc(F)c(CC(=O)N2C[C@@H](N3C[C@H]4C[C@H]4C3)C[C@H]2CO[C@H]2CC[C@H](C(=O)O)CC2)cc1Cl)c1csc2ccccc12 [Example 71] has what IC50?
0.028 µM
